test system: human skin tissue three dimensional model (TESTSKIN LSD-d)
Attribute: carnitine content in the skin model, After 6-hour incubation
valueType: carnitine content in the skin model, After 6-hour incubation (nmol/mg skin protein)

compound	recordedNumber
CCCCCCCCCCCCCCCC(=O)O[C@H](CC(=O)O)C[N+](C)(C)C.[Cl-] [Test substance 4), Hexadecanoyl-L-carnitine hydrochloride]	10
CCCCCCCCCCCCCC(=O)O[C@H](CC(=O)O)C[N+](C)(C)C.[Cl-] [Test substance 3), Tetradecanoyl-L-carnitine hydrochloride]	12
CCCCCC(=O)O[C@H](CC(=O)O)C[N+](C)(C)C.[Cl-] [Test substance 2), Hexanoyl-L-carnitine hydrochloride]	14
CCCCCCCCCCCCCCCCCC(=O)O[C@H](CC(=O)O)C[N+](C)(C)C.[Cl-] [Test substance 5), Octadecanoyl-L-carnitine hydrochloride]	10

----------
test system: human skin tissue three dimensional model (TESTSKIN LSD-d); experiment: Comparison of percutaneous absorption properties: carnitine content in skin model; conditions: 1% by mass solution, 50 μL on tissue surface for 2 hours, then 2-hour incubation at 37° C.
Attribute: carnitine content in the skin model, After 2-hour incubation
valueType: carnitine content in the skin model, After 2-hour incubation (nmol/mg skin protein)

compound	recordedNumber
CCCCCCCCCCCCCCCCOC(=O)C[C@@H](O)C[N+](C)(C)C.[Cl-]	5
CCCCCCCCCCCCCCCC(=O)O[C@H](CC(=O)OC)C[N+](C)(C)C.[Cl-]	2
C[N+](C)(C)C[C@H](O)CC(=O)[O-] [Test substance 1), L-Carnitine, reference compound]	12
CCCCCCCCCCCCCCCCOC(=O)C[C@H](C[N+](C)(C)C)OC(=O)CCCCCCCCCCCCCCC.[Cl-]	2

----------
test system: human skin tissue three dimensional model (TESTSKIN LSD-d)
Attribute: carnitine content in the skin model, After 12-hour incubation
valueType: carnitine content in the skin model, After 12-hour incubation (nmol/mg skin protein)

compound	unitsSymbol	recordedNumber
CCCCCC(=O)O[C@H](CC(=O)O)C[N+](C)(C)C.[Cl-] [Test substance 2), Hexanoyl-L-carnitine hydrochloride]	nmol/mg skin protein	21
CCCCCCCCCCCCCCCCCC(=O)O[C@H](CC(=O)O)C[N+](C)(C)C.[Cl-] [Test substance 5), Octadecanoyl-L-carnitine hydrochloride]	nmol/mg skin protein	25
CCCCCCCCCCCCCC(=O)O[C@H](CC(=O)O)C[N+](C)(C)C.[Cl-] [Test substance 3), Tetradecanoyl-L-carnitine hydrochloride]	nmol/mg skin protein	22
CCCCCCCCCCCCCCCC(=O)O[C@H](CC(=O)O)C[N+](C)(C)C.[Cl-] [Test substance 4), Hexadecanoyl-L-carnitine hydrochloride]	nmol/mg skin protein	23

----------
system: skin together with subcutaneous fat tissues; assay: Subcutaneous fat breakdown test (rat abdominal skin with subcutaneous fat in Franz diffusion cell); conditions: lower cell PBS (−), 37° C., 8 hours; average of three measurements; control (none) 20
valueType: Free glycerol, After 8 hours (µmol/mL)

compound	valueType	recordedNumber
CCCCCCCCCCCCCC(=O)O[C@H](CC(=O)O)C[N+](C)(C)C.[Cl-] [Test substance 3), Tetradecanoyl-L-carnitine hydrochloride]	Free glycerol, After 8 hours	112
CCCCCCCCCCCCCCCCCC(=O)O[C@H](CC(=O)O)C[N+](C)(C)C.[Cl-] [Test substance 5), Octadecanoyl-L-carnitine hydrochloride]	Free glycerol, After 8 hours	117
C[N+](C)(C)C[C@H](O)CC(=O)[O-] [Test substance 1), L-Carnitine, reference compound]	Free glycerol, After 8 hours	120
CCCCCCCCCCCCCCCC(=O)O[C@H](CC(=O)OC)C[N+](C)(C)C.[Cl-]	Free glycerol, After 8 hours	68
CCCCCCCCCCCCCCCC(=O)O[C@H](CC(=O)O)C[N+](C)(C)C.[Cl-] [Test substance 4), Hexadecanoyl-L-carnitine hydrochloride]	Free glycerol, After 8 hours	125
CCCCCC(=O)O[C@H](CC(=O)O)C[N+](C)(C)C.[Cl-] [Test substance 2), Hexanoyl-L-carnitine hydrochloride]	Free glycerol, After 8 hours	116
CCCCCCCCCCCCCCCCOC(=O)C[C@@H](O)C[N+](C)(C)C.[Cl-]	Free glycerol, After 8 hours	110
CCCCCCCCCCCCCCCCOC(=O)C[C@H](C[N+](C)(C)C)OC(=O)CCCCCCCCCCCCCCC.[Cl-]	Free glycerol, After 8 hours	75

----------
test system: human skin tissue three dimensional model (TESTSKIN LSD-d); assay: Comparison of percutaneous absorption properties: carnitine content in skin model; conditions: 1% by mass solution, 50 μL on tissue surface for 2 hours, then 6-hour incubation at 37° C.
Attribute: carnitine content in the skin model, After 6-hour incubation
valueType: carnitine content in the skin model, After 6-hour incubation

compound	result
CCCCCCCCCCCCCCCCOC(=O)C[C@H](C[N+](C)(C)C)OC(=O)CCCCCCCCCCCCCCC.[Cl-]	8 nmol/mg skin protein
C[N+](C)(C)C[C@H](O)CC(=O)[O-] [Test substance 1), L-Carnitine, reference compound]	12 nmol/mg skin protein
CCCCCCCCCCCCCCCCOC(=O)C[C@@H](O)C[N+](C)(C)C.[Cl-]	11 nmol/mg skin protein
CCCCCCCCCCCCCCCC(=O)O[C@H](CC(=O)OC)C[N+](C)(C)C.[Cl-]	9 nmol/mg skin protein

----------
Read-out record for human skin tissue three dimensional model (TESTSKIN LSD-d): carnitine content in the skin model, After 2-hour incubation
valueType: carnitine content in the skin model, After 2-hour incubation (nmol/mg skin protein)

molecule	unitsSymbol	recordedNumber
CCCCCCCCCCCCCCCCCC(=O)O[C@H](CC(=O)O)C[N+](C)(C)C.[Cl-] [Test substance 5), Octadecanoyl-L-carnitine hydrochloride]	nmol/mg skin protein	5
CCCCCCCCCCCCCC(=O)O[C@H](CC(=O)O)C[N+](C)(C)C.[Cl-] [Test substance 3), Tetradecanoyl-L-carnitine hydrochloride]	nmol/mg skin protein	6
CCCCCC(=O)O[C@H](CC(=O)O)C[N+](C)(C)C.[Cl-] [Test substance 2), Hexanoyl-L-carnitine hydrochloride]	nmol/mg skin protein	7
CCCCCCCCCCCCCCCC(=O)O[C@H](CC(=O)O)C[N+](C)(C)C.[Cl-] [Test substance 4), Hexadecanoyl-L-carnitine hydrochloride]	nmol/mg skin protein	6

----------
Attribute: carnitine content in the skin model, After 12-hour incubation
tested on: human skin tissue three dimensional model (TESTSKIN LSD-d); assay: Comparison of percutaneous absorption properties: carnitine content in skin model; settings: 1% by mass solution, 50 μL on tissue surface for 2 hours, then 12-hour incubation at 37° C.
valueType: carnitine content in the skin model, After 12-hour incubation (nmol/mg skin protein)

compound	recordedNumber
CCCCCCCCCCCCCCCC(=O)O[C@H](CC(=O)OC)C[N+](C)(C)C.[Cl-] [Test substance 7)]	19
CCCCCCCCCCCCCCCCOC(=O)C[C@H](C[N+](C)(C)C)OC(=O)CCCCCCCCCCCCCCC.[Cl-] [Test substance 8)]	21
C[N+](C)(C)C[C@H](O)CC(=O)[O-] [Test substance 1), L-Carnitine, reference compound]	11
CCCCCCCCCCCCCCCCOC(=O)C[C@@H](O)C[N+](C)(C)C.[Cl-] [Test substance 6)]	26
